B1: Pistol ribozyme (parent)
chain: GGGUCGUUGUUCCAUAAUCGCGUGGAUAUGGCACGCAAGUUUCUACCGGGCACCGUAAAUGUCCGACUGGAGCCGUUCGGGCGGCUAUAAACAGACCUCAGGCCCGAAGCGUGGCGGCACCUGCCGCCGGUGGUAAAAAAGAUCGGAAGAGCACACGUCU

variants of: B1; test: aptazyme ON/OFF ratio, guanine; higher = stronger switching; co-transcriptional cleavage with and without guanine
Listed here are variants together with their documented aptazyme ON/OFF ratio.
readoutKind: aptazyme ON/OFF ratio

                            variant  number
 0           U7G U8G U10A U11G C13G    1.18
 1                U7G U8A U11G C13A     1.2
 2  U7G U8A G9U U10G U11A C12A C13A    1.12
 3  U7C U8G G9A U10G U11G C12A C13U    1.12
 4  U7A U8A G9C U10C U11G C12U C13U    1.06
 5       U7A U8C G9A U10C C12U C13G     1.1
 6  U7C U8A G9C U10G U11G C12G C13A    1.11
 7                     U8C G9C C12A    1.16
 8           U8G G9U U11C C12U C13G    1.08
 9       U7G U8G G9A U10C U11G C12G    1.53
10       U7A U8A G9C U10G U11G C12G    1.56
11       U7A U8G G9C U10G U11G C13U    1.31
12           U8A G9A U10C U11A C13G    1.07
13      U7C U8A U10A U11A C12A C13A    1.25
14  U7A U8A G9A U10G U11G C12A C13G    1.29
15                U8C G9A U10C C12A    1.35
16               G9C U11G C12A C13G    1.03
17       U7A U8G G9A U10C U11G C13A    1.19
18           U8C G9U U10G U11G C13A    1.14
19       U7G U8C G9U U10G U11G C13G    1.17
20           U8C G9A U10C U11G C13G    1.44
21  U7C U8A G9A U10C U11A C12G C13A    1.12
